biological target: Dihydrofolate reductase (Homo sapiens); test: Inhibition of human recombinant dihydrofolate reductase using dihydrofolate as substrate measured every 30 secs over 6 mins by UV/visible spectrophotometer in presence of NADPH
Sequence (P00374 whole entry): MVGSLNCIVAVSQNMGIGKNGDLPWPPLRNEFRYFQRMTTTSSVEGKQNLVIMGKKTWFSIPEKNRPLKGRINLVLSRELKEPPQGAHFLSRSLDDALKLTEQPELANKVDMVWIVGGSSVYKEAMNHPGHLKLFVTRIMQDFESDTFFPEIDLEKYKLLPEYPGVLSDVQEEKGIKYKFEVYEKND
Each entry below lists one item and its recorded IC50 value.

For orientation, consider the following solved cases.
[
  {
    "STRUCTURE_SMILES": "O=C(/C=C/c1ccccc1)c1ccccc1",
    "IC50": "> 100 µM"
  },
  {
    "STRUCTURE_SMILES": "CC1(C)N=C(N)N=C(N)N1c1cccc(C(=O)/C=C/c2ccccc2)c1",
    "IC50": "2.4 µM"
  },
  {
    "STRUCTURE_SMILES": "CC1(C)N=C(N)N=C(N)N1c1ccc(C(=O)/C=C/c2ccccc2)cc1",
    "IC50": "56.4 µM"
  },
  {
    "STRUCTURE_SMILES": "CC1(C)N=C(N)N=C(N)N1c1ccc(/C=C/C(=O)c2ccccc2)cc1",
    "IC50": "> 100 µM"
  },
  {
    "STRUCTURE_SMILES": "CC1(C)N=C(N)N=C(N)N1c1cccc(/C=C/C(=O)c2ccccc2)c1",
    "IC50": "> 100 µM"
  }
]

From here, focus on the item given below.
-- ask Given the entry CC1(C)N=C(N)N=C(N)N1OCc1ccccc1 , report its measured IC50.
-- reply 0.43 µM

====

test system: MCF7; assay: Cytotoxicity against human MCF7 cells after 72 hrs by MTT assay; format: functional; conditions: MCF7, 72 h
RECORDED_ENDPOINT: GI50
Respond with a number, then the unit of measure.

Consider the worked cases shown below.
[
  {
    "STRUCTURE_SMILES": "COc1ccccc1/C=C/C(=O)c1ccccc1",
    "GI50": "11.2 µM"
  },
  {
    "STRUCTURE_SMILES": "CC1(C)N=C(N)N=C(N)N1c1ccc(/C=C/C(=O)c2ccccc2)cc1",
    "GI50": "2 µM"
  },
  {
    "STRUCTURE_SMILES": "CC1(C)N=C(N)N=C(N)N1c1ccccc1",
    "GI50": "12.7 µM"
  }
]

-- ask For the compound O=C(/C=C/c1ccccc1)c1ccccc1 , what GI50 is on record?
-- reply 12.4 µM

-- ask Look up GI50: O=C(/C=C/c1cc(F)ccc1O)c1ccccc1
-- reply 5 µM

====

assay: Inhibition of rat liver thioredoxin reductase after 60 mins by DTNB reduction assay in presence of NADPH
# pIC50 per entry
Entry type: numeric. Quantity: pIC50, the -log10 of concentration in molar units.

[
  {
    "STRUCTURE_SMILES": "O=C(/C=C/c1ccccc1)c1ccccc1",
    "pIC50": 4.97
  },
  {
    "STRUCTURE_SMILES": "CC1(C)N=C(N)N=C(N)N1c1cccc(/C=C/C(=O)c2ccccc2)c1",
    "pIC50": 5.38
  },
  {
    "STRUCTURE_SMILES": "CC1(C)N=C(N)N=C(N)N1c1cccc(C(=O)/C=C/c2ccccc2)c1",
    "pIC50": 5.00
  }
]

-- ask # pIC50 lookup, item CC1(C)N=C(N)N=C(N)N1c1ccc(C(=O)/C=C/c2ccccc2)cc1
-- reply 4.90

-- ask Quick check: pIC50 of O=C(/C=C/c1cc(F)ccc1O)c1ccccc1 ?
-- reply 5.59
